Below, each entry is listed alongside its reported Cmax.
Format: in vivo, human
Settings: male, human, plasma, oral, 100 mg
readoutKind: Cmax (ng/mL)

molecule | quantityUnit | recordedNumber
Cc1c(Cl)c(C)[n+]([O-])c(Cl)c1-c1noc(-c2cc(O)c(O)c([N+](=O)[O-])c2)n1 [opicapone, reference compound] | ng/mL | 600
Cc1c(Cl)c(C)[n+]([O-])c(Cl)c1-c1noc(-c2cc(O[C@@H]3O[C@H](C(=O)O)[C@@H](O)[C@H](O)[C@H]3O)c(O)c([N+](=O)[O-])c2)n1 [BIA 9‐1106] | ng/mL | 33.6

----------
Format: in vivo, human
Settings: male, human, plasma, oral, 100 mg

compound | quantityUnit | AUC(0-inf)
Cc1c(Cl)c(C)[n+]([O-])c(Cl)c1-c1noc(-c2cc(O)c(O)c([N+](=O)[O-])c2)n1 [opicapone, reference compound] | ng·h/mL | 1890
